# TARGET SYSTEM: UniProtKB Q01959
# Sequence (Q01959 whole entry, species assumed): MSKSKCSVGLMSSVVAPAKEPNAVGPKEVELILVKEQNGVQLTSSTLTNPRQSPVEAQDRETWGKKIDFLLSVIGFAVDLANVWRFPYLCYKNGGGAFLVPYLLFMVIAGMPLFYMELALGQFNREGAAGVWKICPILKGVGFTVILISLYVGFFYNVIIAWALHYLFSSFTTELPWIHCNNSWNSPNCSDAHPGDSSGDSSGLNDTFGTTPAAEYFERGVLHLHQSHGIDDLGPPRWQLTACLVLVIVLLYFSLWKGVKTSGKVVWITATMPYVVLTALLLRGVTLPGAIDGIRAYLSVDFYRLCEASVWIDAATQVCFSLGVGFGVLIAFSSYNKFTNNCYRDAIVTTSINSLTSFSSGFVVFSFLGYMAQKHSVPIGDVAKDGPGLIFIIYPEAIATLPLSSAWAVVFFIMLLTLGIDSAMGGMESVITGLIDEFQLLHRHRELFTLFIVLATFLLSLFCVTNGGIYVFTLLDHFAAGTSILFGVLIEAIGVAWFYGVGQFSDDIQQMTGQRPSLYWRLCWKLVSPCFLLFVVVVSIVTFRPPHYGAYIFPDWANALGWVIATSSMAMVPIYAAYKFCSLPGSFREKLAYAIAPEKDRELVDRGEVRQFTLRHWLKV
# PROCEDURE TEXT: SAFETYscan Transporter DAT Blocker
pIC50: −log10 of the molar value.
REPORTED ENDPOINT: pIC50

Given the entry Cn1c(=O)c2c(c3cc(Nc4ccnc(F)c4Cl)ccc31)N[C@@H](C1CC1)C(F)(F)CO2 , report its measured pIC50.
< 5.00

---

# TARGET SYSTEM: UniProt P11229
# Sequence (P11229 whole entry): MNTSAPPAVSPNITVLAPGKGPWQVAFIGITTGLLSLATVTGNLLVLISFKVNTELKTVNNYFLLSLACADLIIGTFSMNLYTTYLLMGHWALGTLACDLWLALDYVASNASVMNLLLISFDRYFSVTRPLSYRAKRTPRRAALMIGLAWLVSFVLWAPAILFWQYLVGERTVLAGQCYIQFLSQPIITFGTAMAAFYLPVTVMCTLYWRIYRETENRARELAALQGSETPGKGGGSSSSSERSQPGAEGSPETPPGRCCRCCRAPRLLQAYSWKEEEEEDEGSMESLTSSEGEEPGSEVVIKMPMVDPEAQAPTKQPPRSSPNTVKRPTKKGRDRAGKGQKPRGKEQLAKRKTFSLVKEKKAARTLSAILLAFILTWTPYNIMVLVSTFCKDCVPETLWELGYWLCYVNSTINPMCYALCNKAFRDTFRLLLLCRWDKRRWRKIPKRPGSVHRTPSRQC
# PROCEDURE TEXT: SAFETYscan Calcium Flux CHRM1 Agonist
# Text: Supplement jm3c00155_si_002.xlsx, sheet "SAFETYScan" | column: RC50 (uM); Max Response
REPORTED ENDPOINT: EC50

Quick one: EC50 of Cn1c(=O)c2c(c3cc(Nc4ccnc(F)c4Cl)ccc31)N[C@@H](C1CC1)C(F)(F)CO2 [compound 17] ?
> 10 µM

---

# TARGET SYSTEM: UniProtKB P21728
# PROCEDURE TEXT: SAFETYscan cAMP DRD1 Antagonist
REPORTED ENDPOINT: IC50 (µM)
Note: unit µM is implicit; provide only the numeric part.

Looking for the measured IC50 of Cn1c(=O)c2c(c3cc(Nc4ccnc(F)c4Cl)ccc31)N[C@@H](C1CC1)C(F)(F)CO2 [compound 17] , can you help?
2.58

---

# TARGET SYSTEM: HTR2B (Homo sapiens, UniProt P41595)
# Sequence (P41595 whole entry): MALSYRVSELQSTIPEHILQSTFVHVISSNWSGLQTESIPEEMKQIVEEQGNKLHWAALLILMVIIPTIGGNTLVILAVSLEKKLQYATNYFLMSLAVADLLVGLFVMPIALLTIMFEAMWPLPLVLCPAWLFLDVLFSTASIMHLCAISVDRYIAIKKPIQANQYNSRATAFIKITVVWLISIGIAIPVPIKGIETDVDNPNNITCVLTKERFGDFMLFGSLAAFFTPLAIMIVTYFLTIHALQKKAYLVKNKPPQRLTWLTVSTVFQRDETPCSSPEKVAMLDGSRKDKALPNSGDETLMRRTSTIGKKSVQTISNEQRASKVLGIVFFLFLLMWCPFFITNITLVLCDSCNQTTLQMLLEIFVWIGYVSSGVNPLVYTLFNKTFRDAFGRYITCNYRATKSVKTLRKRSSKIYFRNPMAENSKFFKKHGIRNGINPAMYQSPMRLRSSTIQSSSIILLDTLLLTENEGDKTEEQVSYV
# PROCEDURE TEXT: SAFETYscan Calcium Flux HTR2B Antagonist
REPORTED ENDPOINT: IC50

Using the record for Cn1c(=O)c2c(c3cc(Nc4ccnc(F)c4Cl)ccc31)N[C@@H](C1CC1)C(F)(F)CO2 , report its IC50.
> 10 µM

---

# TARGET SYSTEM: CHRM3 (Homo sapiens)
# PROCEDURE TEXT: SAFETYscan Calcium Flux CHRM3 Antagonist
pIC50: −log10 of the molar value.
REPORTED ENDPOINT: pIC50

Which pIC50 value is on record for Cn1c(=O)c2c(c3cc(Nc4ccnc(F)c4Cl)ccc31)N[C@@H](C1CC1)C(F)(F)CO2 ?
< 5.00

---

# TARGET SYSTEM: human BCL6 BTB domain (Homo sapiens, UniProt P41182)
# PROCEDURE TEXT: BCL6 TR-FRET assay
# Type: binding
# STATED CONDITIONS: geometric mean of at least three replicates; read-out: BCL6 TR-FRET IC50
pIC50: −log10 of the molar value.
Each entry gets false if its pIC50 stays under 8, and true if its pIC50 is 8 or above.

Look over these answered cases.
Cn1c(=O)c2c(c3cc(Nc4ccnc(Cl)c4C#N)ccc31)N[C@@H](C1CC1)C(F)(F)CO2 : true
Cn1c(=O)c2c(c3cc(Nc4nc(N5CCC5)ncc4Cl)ccc31)N[C@@H](C1CC1)C(F)(F)CO2 : true
Cn1c(=O)c2c(c3cc(Nc4nc(N5CC(F)C5)ncc4Cl)ccc31)N[C@@H](C1CC1)C(F)(F)CO2 : true
Cn1c(=O)c2c(c3cc(Nc4nc(N5CC6CCC(C5)O6)ncc4Cl)ccc31)N[C@@H](C1CC1)C(F)(F)CO2 : true

Is reported pIC50 greater than or equal to 8 here: Cc1nccc(Nc2ccc3c(c2)c2c(c(=O)n3C)OCC(F)(F)[C@H](C3CC3)N2)c1Cl
false

---

# TARGET SYSTEM: DRD1 (Homo sapiens, UniProt P21728)
# Sequence (P21728 whole entry): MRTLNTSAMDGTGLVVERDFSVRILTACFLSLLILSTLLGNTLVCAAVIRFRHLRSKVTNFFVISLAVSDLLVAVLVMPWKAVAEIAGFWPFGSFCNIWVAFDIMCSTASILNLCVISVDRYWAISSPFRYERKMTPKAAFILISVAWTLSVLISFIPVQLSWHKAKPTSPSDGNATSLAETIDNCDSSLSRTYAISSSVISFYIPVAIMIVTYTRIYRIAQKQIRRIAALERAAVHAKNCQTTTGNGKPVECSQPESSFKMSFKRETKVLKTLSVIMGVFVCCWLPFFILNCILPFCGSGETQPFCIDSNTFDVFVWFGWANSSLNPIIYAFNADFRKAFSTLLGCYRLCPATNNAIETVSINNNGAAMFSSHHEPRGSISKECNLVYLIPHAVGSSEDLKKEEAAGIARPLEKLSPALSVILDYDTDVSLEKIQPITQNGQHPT
# PROCEDURE TEXT: SAFETYscan cAMP DRD1 Agonist
REPORTED ENDPOINT: EC50

Entry Cn1c(=O)c2c(c3cc(Nc4ccnc(F)c4Cl)ccc31)N[C@@H](C1CC1)C(F)(F)CO2 has what EC50?
> 10 µM

---

# TARGET SYSTEM: CAV1.2 (Homo sapiens)
# PROCEDURE TEXT: in vitro
# Format: cell-based
REPORTED ENDPOINT: Emax (%)
// units = %; emit number, no label

Requested field: Emax. Item: Cn1c(=O)c2c(c3cc(Nc4ccnc(F)c4Cl)ccc31)N[C@@H](C1CC1)C(F)(F)CO2
0

---

# TARGET SYSTEM: CNR1 (Homo sapiens, UniProt P21554)
# Sequence (P21554 whole entry): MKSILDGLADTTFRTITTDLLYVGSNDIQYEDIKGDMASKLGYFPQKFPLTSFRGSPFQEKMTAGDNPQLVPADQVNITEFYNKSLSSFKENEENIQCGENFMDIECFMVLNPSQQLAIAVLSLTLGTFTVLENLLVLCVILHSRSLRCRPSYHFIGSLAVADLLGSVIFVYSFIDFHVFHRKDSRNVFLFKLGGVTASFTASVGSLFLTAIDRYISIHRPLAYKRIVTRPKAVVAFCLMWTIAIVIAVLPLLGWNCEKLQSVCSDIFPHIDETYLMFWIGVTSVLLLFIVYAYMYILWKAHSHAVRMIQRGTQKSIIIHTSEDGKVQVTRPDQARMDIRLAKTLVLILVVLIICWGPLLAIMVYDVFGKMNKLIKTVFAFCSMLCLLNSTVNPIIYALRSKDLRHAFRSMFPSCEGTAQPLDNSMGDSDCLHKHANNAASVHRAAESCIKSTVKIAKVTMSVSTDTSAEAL
# PROCEDURE TEXT: SAFETYscan cAMP CNR1 Agonist
REPORTED ENDPOINT: EC50

So what does the record say about EC50 for Cn1c(=O)c2c(c3cc(Nc4ccnc(F)c4Cl)ccc31)N[C@@H](C1CC1)C(F)(F)CO2 ?
> 10 µM

---

# TARGET SYSTEM: EDNRA (Homo sapiens)
# Sequence (P25101 21-427): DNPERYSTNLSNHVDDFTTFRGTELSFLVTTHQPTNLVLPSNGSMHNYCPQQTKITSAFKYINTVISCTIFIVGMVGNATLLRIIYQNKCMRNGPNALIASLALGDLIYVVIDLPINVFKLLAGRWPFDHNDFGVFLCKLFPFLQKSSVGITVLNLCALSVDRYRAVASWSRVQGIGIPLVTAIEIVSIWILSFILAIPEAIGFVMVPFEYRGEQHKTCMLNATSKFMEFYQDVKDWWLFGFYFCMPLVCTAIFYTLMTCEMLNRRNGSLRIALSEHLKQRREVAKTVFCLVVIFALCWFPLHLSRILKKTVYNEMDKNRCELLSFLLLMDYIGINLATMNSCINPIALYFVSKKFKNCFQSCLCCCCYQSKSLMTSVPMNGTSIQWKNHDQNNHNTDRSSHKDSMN
# PROCEDURE TEXT: SAFETYscan Calcium Flux EDNRA Agonist
# STATED CONDITIONS: read-out: RC50 (EC50)
pEC50: −log10 of the molar value.
REPORTED ENDPOINT: pEC50

Any idea what its pEC50 is? The compound is Cn1c(=O)c2c(c3cc(Nc4ccnc(F)c4Cl)ccc31)N[C@@H](C1CC1)C(F)(F)CO2 [compound 17]
< 5.00

---

# TARGET SYSTEM: CCKAR (Homo sapiens)
# Sequence (P32238 whole entry): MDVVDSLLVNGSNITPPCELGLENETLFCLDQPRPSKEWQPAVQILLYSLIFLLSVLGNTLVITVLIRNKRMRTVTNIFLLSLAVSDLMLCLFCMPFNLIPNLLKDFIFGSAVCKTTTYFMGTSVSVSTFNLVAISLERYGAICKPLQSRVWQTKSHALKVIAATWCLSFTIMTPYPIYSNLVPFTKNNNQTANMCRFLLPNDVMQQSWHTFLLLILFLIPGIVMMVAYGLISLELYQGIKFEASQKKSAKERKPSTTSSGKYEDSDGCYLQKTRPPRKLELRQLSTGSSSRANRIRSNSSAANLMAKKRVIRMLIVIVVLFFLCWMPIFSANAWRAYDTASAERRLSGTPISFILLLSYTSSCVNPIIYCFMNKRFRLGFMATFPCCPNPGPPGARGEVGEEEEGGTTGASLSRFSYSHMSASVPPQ
# PROCEDURE TEXT: SAFETYscan Calcium Flux CCKAR Antagonist
# STATED CONDITIONS: read-out: RC50 (IC50)
pIC50: −log10 of the molar value.
REPORTED ENDPOINT: pIC50

Which measured pIC50 value corresponds to Cn1c(=O)c2c(c3cc(Nc4ccnc(F)c4Cl)ccc31)N[C@@H](C1CC1)C(F)(F)CO2 ?
< 5.00

---

# TARGET SYSTEM: HRH1 (Homo sapiens, UniProt P35367)
# Sequence (P35367 whole entry): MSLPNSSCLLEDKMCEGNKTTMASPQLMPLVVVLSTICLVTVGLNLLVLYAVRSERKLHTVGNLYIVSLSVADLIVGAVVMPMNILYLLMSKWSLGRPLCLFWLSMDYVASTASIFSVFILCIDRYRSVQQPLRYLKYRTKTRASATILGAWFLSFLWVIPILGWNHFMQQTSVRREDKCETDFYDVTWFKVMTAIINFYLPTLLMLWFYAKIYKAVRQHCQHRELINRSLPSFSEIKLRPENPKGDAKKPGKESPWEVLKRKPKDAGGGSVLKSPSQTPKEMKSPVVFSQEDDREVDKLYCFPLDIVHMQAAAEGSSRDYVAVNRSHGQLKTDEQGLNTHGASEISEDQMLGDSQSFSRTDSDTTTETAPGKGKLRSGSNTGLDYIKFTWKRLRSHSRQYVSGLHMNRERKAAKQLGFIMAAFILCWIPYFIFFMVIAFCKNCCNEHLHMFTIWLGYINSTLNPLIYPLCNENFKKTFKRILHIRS
# PROCEDURE TEXT: SAFETYscan Calcium Flux HRH1 Antagonist
# STATED CONDITIONS: read-out: RC50 (IC50)
REPORTED ENDPOINT: IC50

Query for HRH1 (Homo sapiens, UniProt P35367): what IC50 does the record show for Cn1c(=O)c2c(c3cc(Nc4ccnc(F)c4Cl)ccc31)N[C@@H](C1CC1)C(F)(F)CO2 [compound 17] ?
> 10 µM

---

# TARGET SYSTEM: UniProt P41143
# Sequence (P41143 whole entry): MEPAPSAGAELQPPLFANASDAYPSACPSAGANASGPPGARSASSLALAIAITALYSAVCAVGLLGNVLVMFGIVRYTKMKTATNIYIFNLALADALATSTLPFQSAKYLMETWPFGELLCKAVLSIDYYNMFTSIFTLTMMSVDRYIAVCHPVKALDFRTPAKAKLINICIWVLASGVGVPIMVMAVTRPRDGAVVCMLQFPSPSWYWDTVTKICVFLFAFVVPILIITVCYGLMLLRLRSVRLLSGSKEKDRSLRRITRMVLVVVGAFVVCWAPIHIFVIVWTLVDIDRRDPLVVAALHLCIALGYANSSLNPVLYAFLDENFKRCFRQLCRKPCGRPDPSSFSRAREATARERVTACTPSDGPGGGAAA
# PROCEDURE TEXT: SAFETYscan cAMP OPRD1 Agonist
pEC50: −log10 of the molar value.
REPORTED ENDPOINT: pEC50

Returns the measured pEC50 for the input compound. Input: Cn1c(=O)c2c(c3cc(Nc4ccnc(F)c4Cl)ccc31)N[C@@H](C1CC1)C(F)(F)CO2
< 5.00

---

# TARGET SYSTEM: BCL6-SMRT (NCOR2) corepressor protein-protein interaction (Homo sapiens)
# Construct: DNA encoding full length BCL6 and SMRT; expressed in transfected cells; host or cells: HEK293T
# PROCEDURE TEXT: NanoBRET cellular assay (HEK293T)
# Format: cell-based
# STATED CONDITIONS: Table S2
# Method: Test compounds in DMSO or DMSO alone concentration in 0.7% v/v DMSO final. (also called NCOR2) corepressor protein-protein interaction. DNA encoding full length BCL6 and SMRT fusion proteins BCL6-nanoLuc and SMRT-HaloTag, respectively. HEK293T cells were plated […] in T75 At the time of assay, compounds dispensing (Labcyte Inc.). Frozen transfected HEK293T cells were thawed, centrifuged and freezing DMSO final concentration. After a short centrifugation the […]
A collection of molecules and their measured BCL6 NanoBRET pIC50 mean
Please reply with the number alone, leaving off any unit.

Query the reported BCL6 NanoBRET pIC50 mean for BCL6-SMRT (NCOR2) corepressor protein-protein interaction (Homo sapiens); item: Cn1c(=O)c2c(c3cc(Nc4nc(N5CC(C#N)C5)ncc4Cl)ccc31)N[C@@H](C1CC1)C(F)(F)CO2
7.2623

Also need Cn1c(=O)c2c(c3cc(Nc4ccnc(Cl)c4C#N)ccc31)N[C@@H](C1CC1)C(F)(F)CO2 , thanks.
7.9327

Next: Cn1c(=O)c2c(c3cc(Nc4nc(N5CCC5)ncc4Cl)ccc31)N[C@@H](C1CC1)C(F)(F)CO2
6.8258

---

# TARGET SYSTEM: CHRM3 (Homo sapiens, UniProt P20309)
# Sequence (P20309 whole entry): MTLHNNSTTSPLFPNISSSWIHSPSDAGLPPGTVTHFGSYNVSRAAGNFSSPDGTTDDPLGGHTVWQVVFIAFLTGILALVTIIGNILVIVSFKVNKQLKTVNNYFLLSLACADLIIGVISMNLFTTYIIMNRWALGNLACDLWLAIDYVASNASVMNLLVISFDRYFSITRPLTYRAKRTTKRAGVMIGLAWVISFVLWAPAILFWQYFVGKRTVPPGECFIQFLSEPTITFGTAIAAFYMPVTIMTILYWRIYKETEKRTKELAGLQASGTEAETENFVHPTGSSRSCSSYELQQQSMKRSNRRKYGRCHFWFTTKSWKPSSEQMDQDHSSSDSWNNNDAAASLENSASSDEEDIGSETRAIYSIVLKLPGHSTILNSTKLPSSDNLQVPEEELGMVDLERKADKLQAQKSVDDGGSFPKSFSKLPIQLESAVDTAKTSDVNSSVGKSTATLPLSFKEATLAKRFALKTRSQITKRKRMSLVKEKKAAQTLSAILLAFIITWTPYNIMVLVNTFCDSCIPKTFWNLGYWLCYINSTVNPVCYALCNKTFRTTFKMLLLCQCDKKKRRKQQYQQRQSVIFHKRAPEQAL
# PROCEDURE TEXT: SAFETYscan Calcium Flux CHRM3 Agonist
REPORTED ENDPOINT: EC50

Kindly state the measured EC50 obtained for Cn1c(=O)c2c(c3cc(Nc4ccnc(F)c4Cl)ccc31)N[C@@H](C1CC1)C(F)(F)CO2 with CHRM3 (Homo sapiens, UniProt P20309).
> 10 µM

---

# TARGET SYSTEM: human BCL6 BTB domain (Homo sapiens, UniProt P41182)
# PROCEDURE TEXT: BCL6 TR-FRET assay
# Type: binding
# STATED CONDITIONS: geometric mean of at least three replicates; read-out: BCL6 TR-FRET IC50
pIC50: −log10 of the molar value.
Tick condition met if pIC50 is 8 or greater. Tick condition not met if pIC50 is less than 8.

Consider the worked cases shown below.
Cn1c(=O)c2c(c3cc(Nc4ccnc(Cl)c4F)ccc31)N[C@@H](C1CC1)C(F)(F)CO2 : condition not met
Cn1c(=O)c2c(c3cc(Nc4nc(N5C6COCC5CC(O)C6)ncc4Cl)ccc31)N[C@@H](C1CC1)C(F)(F)CO2 (stereo partly drawn) : condition met
COC1CN(c2ncc(Cl)c(Nc3ccc4c(c3)c3c(c(=O)n4C)OCC(F)(F)[C@H](C4CC4)N3)n2)C1 : condition met
Cn1c(=O)c2c(c3cc(Nc4nc(N5CC(C#N)C5)ncc4Cl)ccc31)N[C@@H](C1CC1)C(F)(F)CO2 : condition met

As a next step, examine the molecule that follows.
Confirm if pIC50 reported for the molecule Cn1c(=O)c2c(c3cc(Nc4nc(N5C6CCC5COC6)ncc4Cl)ccc31)N[C@@H](C1CC1)C(F)(F)CO2 is 8 or above.
condition met
